Value source: ChEMBL document CHEMBL1137847

- Subject of test: GABA-A receptor; anion channel (Homo sapiens) (UniProt P14867+P47870+P18507+P28472+P48169+Q99928+Q9UN88+P34903+O00591+O14764+Q8N1C3+P18505+P78334+P47869+P31644+Q16445)
- Assay: Gamma-aminobutyric acid A receptor modulating activity (expressed as biological activity).
- Type: protein-complex assay
Returns: string. Value is yes (1) if measured BA is below 4, and no (0) if it is greater than or equal to it.

CCCC1(CCC)C(=O)OC[C@H]1NS(=O)(=O)c1ccc(OC)cc1 : yes (1)
CCCC1(CCC)C(=O)OC[C@H]1NS(=O)(=O)c1cccs1 : yes (1)
CCCC1(CCC)C(=O)OC[C@H]1NC(=O)OC(C)(C)C : no (0)
CCCC1(CCC)C(=O)OC[C@H]1NS(=O)(=O)N(C)C : yes (1)

Shift focus to the following entry.
Please determine if "C=CCC1(CC=C)C(=O)OC[C@H]1NCc1ccccc1" is below 4 in terms of BA.
no (0)
